- system_under_test: T1, 重组人PLVAP/PV-1蛋白 (human, UniProt Q9BX97 49-442, limits assumed)
- T1 construct: Bought reagent (Abcam); Coupled to a CM5 chip in the SPR assay; also called 质膜膜泡关联蛋白
- T1 sequence (looked up): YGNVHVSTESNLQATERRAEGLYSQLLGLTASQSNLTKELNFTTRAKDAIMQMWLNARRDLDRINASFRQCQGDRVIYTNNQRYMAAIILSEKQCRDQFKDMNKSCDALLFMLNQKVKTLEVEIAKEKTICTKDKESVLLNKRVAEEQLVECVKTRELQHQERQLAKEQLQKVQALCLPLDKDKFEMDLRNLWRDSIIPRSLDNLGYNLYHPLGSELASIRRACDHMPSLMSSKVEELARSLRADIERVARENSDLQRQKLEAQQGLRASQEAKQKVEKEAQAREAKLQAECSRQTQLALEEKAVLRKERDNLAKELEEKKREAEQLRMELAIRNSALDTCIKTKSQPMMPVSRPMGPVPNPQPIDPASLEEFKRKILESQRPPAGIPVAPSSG
- procedure_details: SPR, Biacore T200, PV-1 coupled to CM5 chip, antibody as analyte, 25℃, 1:1 fit
assay_readout: 倍数 (fold against HLPV-P00) (fold)

1. HLPV-P03 (antibody, IgG1, V domains shown, Full IgG1/kappa antibody; not shown: human IgG1 heavy chain constant region, UniProtKB P01857.1; human Kappa light chain constant region, UniProtKB P01834.2) VH: QVQLVQSGAEVKKPGASVKVSCKASGYTFEDYYMYWVRQAPGQGLEWIGEVNPTQGDVNFNEMFKSRVTMTVDTSTSTAYMELSSLRSEDTAVYYCTSIFYWGQGTLVTVSS VL: DIVMTQSPSSLSASVGDRVTITCKASQDIKYQLSWYQQKPGKAPKTLIYYATFLADGVPSRFSGSGSGQEFTLTISSLQPEDFATYYCVQHDDRPFTFGQGTKLEIK ... 13.4
